Measured MIC on Burkholderia cepacia (ATCC 25416) follows.

[
  {
    "COMPOUND": "O=[N+]([O-])c1cn2c(n1)OC[C@@H](OCc1ccc(OC(F)(F)F)cc1)C2",
    "UNIT INFO": "µg/mL",
    "COMPARISON OPERATOR": ">",
    "MIC": 200
  },
  {
    "COMPOUND": "O=[N+]([O-])c1ccc(C2=NOC(c3ccc(N4CCC(Oc5ccc(F)cc5)CC4)nc3)C2)o1 (stereo not shown)",
    "UNIT INFO": "µg/mL",
    "COMPARISON OPERATOR": "=",
    "MIC": 50
  },
  {
    "COMPOUND": "O=[N+]([O-])c1ccc(C2=NOC(c3ccc(N4CCC(Oc5ccc(OC(F)(F)F)cc5)CC4)c(F)c3)C2)o1 (stereo not shown)",
    "UNIT INFO": "µg/mL",
    "COMPARISON OPERATOR": ">",
    "MIC": 200
  },
  {
    "COMPOUND": "O=[N+]([O-])c1ccc(C2=NOC(c3ccc(N4CCC(Oc5ccc(OC(F)(F)F)cc5)CC4)cc3)C2)o1 (stereo not shown)",
    "UNIT INFO": "µg/mL",
    "COMPARISON OPERATOR": "=",
    "MIC": 50
  },
  {
    "COMPOUND": "O=[N+]([O-])c1ccc(C2=NOC(c3ccc(N4CCC(Oc5ccc(OC(F)(F)F)cc5)CC4)nc3)C2)o1 (stereo not shown)",
    "UNIT INFO": "µg/mL",
    "COMPARISON OPERATOR": "=",
    "MIC": 100
  },
  {
    "COMPOUND": "O=[N+]([O-])c1ccc(C2=NOC(c3ccc(N4CCC(Oc5ccc(F)cc5)CC4)cc3)C2)o1 (stereo not shown)",
    "UNIT INFO": "µg/mL",
    "COMPARISON OPERATOR": "=",
    "MIC": 50
  },
  {
    "COMPOUND": "O=[N+]([O-])c1ccc(C2=NOC(c3ccc(N4CCC(Oc5ccc(F)cc5)CC4)c(F)c3)C2)o1 (stereo not shown)",
    "UNIT INFO": "µg/mL",
    "COMPARISON OPERATOR": "=",
    "MIC": 12.5
  }
]

----------
PROTOCOL DESCRIPTION: In vitro cytotoxicity against Vero cells
MEASUREMENT PARAMETERS: African green monkey, Vero cells (kidney epithelial cells, ATCC CCL-81)
QUANTITY: IC50 (µg/mL)

[
  {
    "MOLECULE": "O=[N+]([O-])c1ccc(C2=NOC(c3ccc(N4CCC(Oc5ccc(OC(F)(F)F)cc5)CC4)cc3)C2)o1 (stereo not shown) [Compound 9a]",
    "NUMERIC READOUT": 19.4
  },
  {
    "MOLECULE": "O=[N+]([O-])c1ccc(C2=NOC(c3ccc(N4CCC(Oc5ccc(F)cc5)CC4)c(F)c3)C2)o1 (stereo not shown) [Compound 9f]",
    "NUMERIC READOUT": 8
  },
  {
    "MOLECULE": "O=[N+]([O-])c1cn2c(n1)OC[C@@H](OCc1ccc(OC(F)(F)F)cc1)C2 [PA-824]",
    "NUMERIC READOUT": 69.4
  },
  {
    "MOLECULE": "O=[N+]([O-])c1ccc(C2=NOC(c3ccc(N4CCC(Oc5ccc(F)cc5)CC4)cc3)C2)o1 (stereo not shown) [Compound 9d]",
    "NUMERIC READOUT": 14.7
  }
]
